- SUBJECT OF TEST: human Caf1/CNOT7 (Homo sapiens, UniProt Q9UIV1)
- Sequence (Q9UIV1 whole entry): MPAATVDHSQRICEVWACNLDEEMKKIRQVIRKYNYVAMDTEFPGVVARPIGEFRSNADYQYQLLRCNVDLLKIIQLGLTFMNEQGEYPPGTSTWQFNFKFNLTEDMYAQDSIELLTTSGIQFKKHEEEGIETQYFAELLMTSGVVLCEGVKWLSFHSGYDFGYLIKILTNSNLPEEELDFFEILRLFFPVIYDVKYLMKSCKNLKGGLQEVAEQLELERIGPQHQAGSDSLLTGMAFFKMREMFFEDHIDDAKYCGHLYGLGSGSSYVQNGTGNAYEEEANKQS
- ASSAY EXPLANATION: Fluorescence-based Caf1/CNOT7 nuclease activity assay (Flc-RNA substrate, TAMRA-labelled DNA probe)
- Type: biochemical
- EXPERIMENTAL PARAMETERS: mean ± standard deviation; 0.4 μM Caf1/CNOT7, 0.1 μM Flc-RNA substrate, 15 min preincubation, 60 min at 30 °C
PROPERTY NAME: pIC50
By convention, pIC50 is the negative base-10 log of a molar concentration.

# input What value of pIC50 has been recorded for this entry: CC(C)c1ccc(-c2nnn(CC(=O)NC(=O)NCc3ccccc3)n2)cc1 [Compound 7]
# output 4.76

# input Follow-up entry: CC(C)NC(=O)Nc1cccc(C(=O)Nc2ccc3oc(C(F)(F)F)nc3c2)c1 [Compound 13]
# output 4.84

# input Follow-up entry: CC(NC(=O)c1ccoc1)C(=O)Nc1cc(-c2cc(Cl)cc(Cl)c2)[nH]n1 (stereo not drawn) [Compound 6]
# output 4.71

# input Follow-up entry: O=C(Cc1c[nH]c2ccccc12)OCc1ccc(F)cc1Cl [Compound 5]
# output 4.76

# input Follow-up entry: N#Cc1cc(C#N)c(SCc2nnc(-c3cccs3)o2)nc1N [Compound 12]
# output 4.67

# input Follow-up entry: O=C(COC(=O)Cc1ccc(-c2ccccc2)cc1)NC(=O)c1cccs1 [Compound 21]
# output 4.11

# input Follow-up entry: Cc1ccc(NC(=O)c2c[nH]nc2-c2ccc(Cl)cc2)nc1 [Compound 2]
# output 4.71

# input Follow-up entry: Cc1ccc2nc(NC(=O)c3cc(Br)c[nH]3)sc2c1 [Compound 1]
# output 4.75

# input Follow-up entry: CC(=O)Nc1cccc(NC2=NN=C(c3cc(C)[nH]c3C)CS2)c1 [Compound 10]
# output 4.76

Reference for the values: paper PMC12650180
